For each record, write down the corresponding IC50.
- Experimental target: NDM-1 (Klebsiella pneumoniae)
- Assay overview: biochemical
- Format: biochemical
- Run parameters: NDM-1 enzyme, CCF2-FA fluorescence assay; read-out: NDM-1 IC50
Lab book: enter the figure in nM, no units written.

Q: Could you tell me which IC50 is on file for `NS(=O)(=O)c1cccc(-c2ccc(CNCCc3cc[nH]n3)cc2)c1-c1nnn[nH]1` ?
A: 3.33

Q: Could you tell me which IC50 is on file for `NS(=O)(=O)c1cccc(C(F)(F)F)c1-c1nnn[nH]1` ?
A: 230

Q: Could you tell me which IC50 is on file for `NS(=O)(=O)c1c(C(F)(F)F)ccc(CC[C@H]2CC[C@H](N)CC2)c1-c1nn[nH]n1` ?
A: 17.9

Q: Could you tell me which IC50 is on file for `CN(C)CCCN(C)Cc1ccc(-c2cccc(S(N)(=O)=O)c2-c2nnn[nH]2)cc1` ?
A: 23.4

Q: Could you tell me which IC50 is on file for NS(=O)(=O)c1cccc(-c2ccc(C3(O)CCNC3)cc2)c1-c1nn[nH]n1 (centres unmarked) ?
A: 12.7

Q: Could you tell me which IC50 is on file for `NS(=O)(=O)c1cccc(-c2ccc(CNC3CCN(C4CCCC4)CC3)cc2)c1-c1nnn[nH]1` ?
A: 27.3

Q: Could you tell me which IC50 is on file for `N=C(N)N1Cc2ccc(-c3ccc(C(F)(F)F)c(S(N)(=O)=O)c3-c3nn[nH]n3)cc2C1` ?
A: 15.4

Q: Could you tell me which IC50 is on file for `NS(=O)(=O)c1cccc(-c2cc3ccncc3s2)c1-c1nnn[nH]1` ?
A: 4.11

* * *

For each record, write down the corresponding IC50.
- Experimental target: NDM-1 (Klebsiella pneumoniae, UniProt C7C422)
- Sequence (C7C422 whole entry, looked up, species assumed): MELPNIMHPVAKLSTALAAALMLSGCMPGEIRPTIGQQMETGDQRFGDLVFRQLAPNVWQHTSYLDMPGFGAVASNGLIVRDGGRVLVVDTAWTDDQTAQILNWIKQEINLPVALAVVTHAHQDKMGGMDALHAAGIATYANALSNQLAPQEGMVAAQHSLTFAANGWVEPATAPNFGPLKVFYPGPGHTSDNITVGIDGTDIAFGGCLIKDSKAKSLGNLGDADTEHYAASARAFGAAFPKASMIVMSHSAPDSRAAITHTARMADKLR
- Assay overview: biochemical
- Type: biochemical
- Run parameters: NDM-1 enzyme, CCF2-FA substrate; read-out: NDM-1 IC50
Lab book: enter the figure in nM, no units written.

Q: Could you tell me which IC50 is on file for `NCC[C@H]1CC[C@H](c2ccc(C(F)(F)F)c(S(N)(=O)=O)c2-c2nnn[nH]2)CC1` ?
A: 1.93

Q: Could you tell me which IC50 is on file for `CS(=O)(=O)C1CN(c2ccc(-c3cccc(S(N)(=O)=O)c3-c3nnn[nH]3)cn2)C1` ?
A: 8.25

Q: Could you tell me which IC50 is on file for `Nc1ccc(-c2ccc(C(F)(F)F)c(S(N)(=O)=O)c2-c2nnn[nH]2)nc1` ?
A: 5

Q: Could you tell me which IC50 is on file for `NS(=O)(=O)c1c(C(F)(F)F)ccc(-c2ccc(C3CCN(C[C@@H]4CNCCO4)CC3)cc2)c1-c1nnn[nH]1` ?
A: 15.3

* * *

- Experimental target: NDM-1 (Klebsiella pneumoniae, UniProt C7C422)
- Assay overview: biochemical
- Assay type: biochemical
- Run parameters: NDM-1 enzyme, CCF2-FA fluorescence assay; read-out: NDM-1 IC50
For each record, write down the corresponding pIC50.
Please express pIC50 as -log10 of the molar concentration.

Q: Given the entry `NS(=O)(=O)c1cccc(-c2csc(-c3ccncc3)n2)c1-c1nnn[nH]1` , what pIC50 was observed with NDM-1 (Klebsiella pneumoniae, UniProt C7C422)?
A: 7.57

Q: Given the entry `NS(=O)(=O)c1c(C(F)(F)F)ccc(-c2ccc(CO)cc2)c1-c1nn[nH]n1` , what pIC50 was observed with NDM-1 (Klebsiella pneumoniae, UniProt C7C422)?
A: 8.89

Q: Given the entry `NS(=O)(=O)c1cccc(-c2ccc3nccnc3c2)c1-c1nnn[nH]1` , what pIC50 was observed with NDM-1 (Klebsiella pneumoniae, UniProt C7C422)?
A: 8.37

Q: Given the entry `Nc1ncc(-c2cccc(S(N)(=O)=O)c2-c2nn[nH]n2)cc1F` , what pIC50 was observed with NDM-1 (Klebsiella pneumoniae, UniProt C7C422)?
A: 8.44

Q: Given the entry `NS(=O)(=O)c1c(Br)ccc(-c2ccnc3ccccc23)c1-c1nn[nH]n1` , what pIC50 was observed with NDM-1 (Klebsiella pneumoniae, UniProt C7C422)?
A: 8.68

Q: Given the entry `NS(=O)(=O)c1cccc(-c2ccc(CNCC3(O)CCC3)cc2)c1-c1nnn[nH]1` , what pIC50 was observed with NDM-1 (Klebsiella pneumoniae, UniProt C7C422)?
A: 7.84

Q: Given the entry `NS(=O)(=O)c1c(C(F)(F)F)ccc(N2CCC(c3ccc(CO)cc3)CC2)c1-c1nn[nH]n1` , what pIC50 was observed with NDM-1 (Klebsiella pneumoniae, UniProt C7C422)?
A: 8.79

Q: Given the entry `NS(=O)(=O)c1c(Br)ccc(-c2ccc3c(c2)CNC3)c1-c1nn[nH]n1` , what pIC50 was observed with NDM-1 (Klebsiella pneumoniae, UniProt C7C422)?
A: 8.14

Q: Given the entry `NCCCc1ccc(-c2cccc(S(N)(=O)=O)c2-c2nnn[nH]2)cc1` , what pIC50 was observed with NDM-1 (Klebsiella pneumoniae, UniProt C7C422)?
A: 7.30

Q: Given the entry `NS(=O)(=O)c1cccc(-c2ccc3nc(C(=O)O)ccc3c2)c1-c1nn[nH]n1` , what pIC50 was observed with NDM-1 (Klebsiella pneumoniae, UniProt C7C422)?
A: 9.13

Q: Given the entry `Nc1ncc(-c2ccc(C(F)(F)F)c(S(N)(=O)=O)c2-c2nnn[nH]2)cn1` , what pIC50 was observed with NDM-1 (Klebsiella pneumoniae, UniProt C7C422)?
A: 8.29

Q: Given the entry `NS(=O)(=O)c1cccc(-c2ccc(C3=CCNC3)cc2)c1-c1nn[nH]n1` , what pIC50 was observed with NDM-1 (Klebsiella pneumoniae, UniProt C7C422)?
A: 8.55

Q: Given the entry `Nc1ccc(-c2cccc(S(N)(=O)=O)c2-c2nnn[nH]2)c2ccncc12` , what pIC50 was observed with NDM-1 (Klebsiella pneumoniae, UniProt C7C422)?
A: 9.24

Q: Given the entry `CN(C)[C@@H]1CCN(Cc2ccc(-c3cccc(S(N)(=O)=O)c3-c3nnn[nH]3)cc2)C1` , what pIC50 was observed with NDM-1 (Klebsiella pneumoniae, UniProt C7C422)?
A: 7.91

Q: Given the entry `C[C@@H](O)[C@H](NCc1ccc(-c2cccc(S(N)(=O)=O)c2-c2nnn[nH]2)cc1)C(=O)O` , what pIC50 was observed with NDM-1 (Klebsiella pneumoniae, UniProt C7C422)?
A: 7.90

Q: Given the entry CC(C(=O)O)N(C)Cc1ccc(-c2cccc(S(N)(=O)=O)c2-c2nnn[nH]2)cc1 (stereo not drawn) , what pIC50 was observed with NDM-1 (Klebsiella pneumoniae, UniProt C7C422)?
A: 8.12

Q: Given the entry `NS(=O)(=O)c1c(CC2CCN(CC3CNC3)CC2)ccc(-c2ccc(C3CCNCC3)cc2)c1-c1nn[nH]n1` , what pIC50 was observed with NDM-1 (Klebsiella pneumoniae, UniProt C7C422)?
A: 8.57

Q: Given the entry `Nc1n[nH]c2cc(-c3ccc(C(F)(F)F)c(S(N)(=O)=O)c3-c3nnn[nH]3)ccc12` , what pIC50 was observed with NDM-1 (Klebsiella pneumoniae, UniProt C7C422)?
A: 9.00

Q: Given the entry `Cc1ccncc1-c1cccc(S(N)(=O)=O)c1-c1nn[nH]n1` , what pIC50 was observed with NDM-1 (Klebsiella pneumoniae, UniProt C7C422)?
A: 8.27

Q: Given the entry Cl.Cl.NC1(c2ccc(-c3cccc(S(N)(=O)=O)c3-c3nn[nH]n3)cc2)CCNCC1 [Example 283, dihydrochloride] , what pIC50 was observed with NDM-1 (Klebsiella pneumoniae, UniProt C7C422)?
A: 7.48

Q: Given the entry `CS(=O)(=O)Nc1ccc(-c2ccc(C(F)(F)F)c(S(N)(=O)=O)c2-c2nn[nH]n2)cc1` , what pIC50 was observed with NDM-1 (Klebsiella pneumoniae, UniProt C7C422)?
A: 9.20

Q: Given the entry `NS(=O)(=O)c1cccc(-c2cnc3[nH]ccc3c2)c1-c1nn[nH]n1` , what pIC50 was observed with NDM-1 (Klebsiella pneumoniae, UniProt C7C422)?
A: 9.02

Q: Given the entry CC(O)C1CCN(Cc2ccc(-c3cccc(S(N)(=O)=O)c3-c3nnn[nH]3)cc2)C1 (stereo not drawn) , what pIC50 was observed with NDM-1 (Klebsiella pneumoniae, UniProt C7C422)?
A: 7.74

Q: Given the entry `NS(=O)(=O)c1cccc(-c2ccc(CN3CCC(O)CC3)cc2)c1-c1nnn[nH]1` , what pIC50 was observed with NDM-1 (Klebsiella pneumoniae, UniProt C7C422)?
A: 7.95

Q: Given the entry `NS(=O)(=O)c1cccc(-c2nc(-c3ccncc3)cs2)c1-c1nnn[nH]1` , what pIC50 was observed with NDM-1 (Klebsiella pneumoniae, UniProt C7C422)?
A: 7.59

Q: Given the entry `CC(C)(O)C1CN(Cc2ccc(-c3cccc(S(N)(=O)=O)c3-c3nnn[nH]3)cc2)C1` , what pIC50 was observed with NDM-1 (Klebsiella pneumoniae, UniProt C7C422)?
A: 7.47

Q: Given the entry `CS(=O)(=O)Nc1ccc(-c2ccc(Br)c(S(N)(=O)=O)c2-c2nn[nH]n2)cc1` , what pIC50 was observed with NDM-1 (Klebsiella pneumoniae, UniProt C7C422)?
A: 8.59

Q: Given the entry `COc1ccc(S(N)(=O)=O)c(-c2nn[nH]n2)c1` , what pIC50 was observed with NDM-1 (Klebsiella pneumoniae, UniProt C7C422)?
A: 6.36

Q: Given the entry `NS(=O)(=O)c1cccc(-c2ccc(CNCC(=O)NO)cc2)c1-c1nnn[nH]1` , what pIC50 was observed with NDM-1 (Klebsiella pneumoniae, UniProt C7C422)?
A: 7.90

Q: Given the entry `NS(=O)(=O)c1nccc(N2CCC3(CCNCC3)CC2)c1-c1nn[nH]n1` , what pIC50 was observed with NDM-1 (Klebsiella pneumoniae, UniProt C7C422)?
A: 6.58

Q: Given the entry `CN1CC(NCc2ccc(-c3cccc(S(N)(=O)=O)c3-c3nnn[nH]3)cc2)C1` , what pIC50 was observed with NDM-1 (Klebsiella pneumoniae, UniProt C7C422)?
A: 7.51

Q: Given the entry `NS(=O)(=O)c1c(CC[C@H]2CC[C@H](N)CC2)ccc(-c2ccc(C3CCNCC3)cc2)c1-c1nn[nH]n1` , what pIC50 was observed with NDM-1 (Klebsiella pneumoniae, UniProt C7C422)?
A: 8.72

Q: Given the entry `NS(=O)(=O)c1c(C(F)(F)F)ccc(C2CC2)c1-c1nnn[nH]1` , what pIC50 was observed with NDM-1 (Klebsiella pneumoniae, UniProt C7C422)?
A: 7.71
